assay: Photochromic properties of cast polymer (2 mm thick) under xenon lamp irradiation for 120 seconds; type: physicochemical; conditions: single chromene compound 0.04% by weight in polymer, 120 seconds, 20° C.; Table 5
experimental-endpoint: Color density ε(120)-ε(0)

(A) COc1ccc(C2(c3ccc(OC)cc3)C=Cc3ccc4ccccc4c3O2)cc1 [a, reference compound]
(B) CCCCc1cc2cccc(Br)c2c2c1C=CC(c1ccc(OC)c(F)c1)(c1ccc(OC)c(F)c1)O2
(C) CC(C)(C)c1cc2ccccc2c2c1C=CC1(O2)C2(Cl)CCC1(Cl)CC2 (stereo not shown)
q: Given 3 molecules, produce a descending ranking by Color density ε(120)-ε(0). Provide the labels, sequenced as the question asks.
a: A, B, C
(A: 1.3, B: 0.8, C: 0.4)

Origin of values: patent US6197225A
